Ratio values by entry
Assay: Selectivity index (Ratio of CC50/EC50).
Assay type: functional
Lab note: record just the number, no unit beside it.

[
  {
    "Entry Smiles": "NC(=O)CNC(=O)c1[nH]c2ccc(Cl)cc2c1S(=O)(=O)c1ccccc1",
    "Ratio": 5000
  }
]

Could you now consider this next molecule?
Exercise: Please look at this molecule and report its Ratio: `Cc1cc(C)cc(S(=O)(=O)c2c(C(=O)NCC(N)=O)[nH]c3ccc(Cl)cc23)c1`
Key: 5000
